B1: Homeobox protein SIX3, residues 212 to 262; numbered along this chain, O95343 (parent)
chain: CFKERTRSLLREWYLQDPYPNPSKKRELAQATGLTPTQVGNWFKNRRQRDR

Variants of: B1
protocol: abundance fitness (aPCA) (normalised: wild type 0, dead -1); higher = more abundant; growth selection in yeast, the domain comes from the species named
measurement setup: Homo sapiens
For each of the variants below, state its abundance fitness.
Could you keep your reply to the number by itself?

Sure, the documented abundance fitness for L34P is -0.75

Sure, the documented abundance fitness for N41R is 0.142

Sure, the documented abundance fitness for A31V is -0.169

Sure, the documented abundance fitness for P22S is -0.107

Sure, the documented abundance fitness for P22N is -0.232

Sure, the documented abundance fitness for T32G is -0.903

Sure, the documented abundance fitness for G40I is -0.247

Sure, the documented abundance fitness for R26C is -0.044

Sure, the documented abundance fitness for K24Y is -0.709

Sure, the documented abundance fitness for T37F is -0.678

Sure, the documented abundance fitness for K24F is -0.672

Sure, the documented abundance fitness for E27T is -0.668

Sure, the documented abundance fitness for A29M is -1.03

Sure, the documented abundance fitness for P36F is 0.184

Sure, the documented abundance fitness for T37D is 0.326

Sure, the documented abundance fitness for A31C is -0.296

Sure, the documented abundance fitness for E27S is -0.322

Sure, the documented abundance fitness for R26K is -0.01

Sure, the documented abundance fitness for K25G is -0.579

Sure, the documented abundance fitness for G33H is -0.542

Sure, the documented abundance fitness for P22C is -0.359

Sure, the documented abundance fitness for K25C is -0.103

Sure, the documented abundance fitness for P36I is -0.096

Sure, the documented abundance fitness for A29K is -0.856

Sure, the documented abundance fitness for N41C is -0.459

Sure, the documented abundance fitness for T35S is -0.044

Sure, the documented abundance fitness for G33Q is -0.57

Sure, the documented abundance fitness for Q30H is -0.149

Sure, the documented abundance fitness for P22W is 0.125

Sure, the documented abundance fitness for G33N is 0.029

Sure, the documented abundance fitness for T32Y is -1

Sure, the documented abundance fitness for Q38M is -0.619

Sure, the documented abundance fitness for T37I is -0.184

Sure, the documented abundance fitness for Q30N is 0.114

Sure, the documented abundance fitness for L34Y is -0.778

Sure, the documented abundance fitness for Q30A is -0.19

Sure, the documented abundance fitness for T35Q is -0.252

Sure, the documented abundance fitness for N41M is -0.286

Sure, the documented abundance fitness for S23P is -0.341

Sure, the documented abundance fitness for Q30Y is -0.314

Sure, the documented abundance fitness for L34Q is -0.634

Sure, the documented abundance fitness for Q38G is -0.761

Sure, the documented abundance fitness for T32A is -0.399

Sure, the documented abundance fitness for R26P is -0.889

Sure, the documented abundance fitness for K25L is -0.061

Sure, the documented abundance fitness for T37V is -0.091
